Catalogue of binders with associated Mean Fluorescence Intensity (MFI), uptake 37C-4C, at 1000 nM
target-of-assay: T1, human sortilin stably expressed on HEK 293 cells (HEK-SORT1 cells) (human, UniProt Q99523 78-831)
T1 sequence (looked up): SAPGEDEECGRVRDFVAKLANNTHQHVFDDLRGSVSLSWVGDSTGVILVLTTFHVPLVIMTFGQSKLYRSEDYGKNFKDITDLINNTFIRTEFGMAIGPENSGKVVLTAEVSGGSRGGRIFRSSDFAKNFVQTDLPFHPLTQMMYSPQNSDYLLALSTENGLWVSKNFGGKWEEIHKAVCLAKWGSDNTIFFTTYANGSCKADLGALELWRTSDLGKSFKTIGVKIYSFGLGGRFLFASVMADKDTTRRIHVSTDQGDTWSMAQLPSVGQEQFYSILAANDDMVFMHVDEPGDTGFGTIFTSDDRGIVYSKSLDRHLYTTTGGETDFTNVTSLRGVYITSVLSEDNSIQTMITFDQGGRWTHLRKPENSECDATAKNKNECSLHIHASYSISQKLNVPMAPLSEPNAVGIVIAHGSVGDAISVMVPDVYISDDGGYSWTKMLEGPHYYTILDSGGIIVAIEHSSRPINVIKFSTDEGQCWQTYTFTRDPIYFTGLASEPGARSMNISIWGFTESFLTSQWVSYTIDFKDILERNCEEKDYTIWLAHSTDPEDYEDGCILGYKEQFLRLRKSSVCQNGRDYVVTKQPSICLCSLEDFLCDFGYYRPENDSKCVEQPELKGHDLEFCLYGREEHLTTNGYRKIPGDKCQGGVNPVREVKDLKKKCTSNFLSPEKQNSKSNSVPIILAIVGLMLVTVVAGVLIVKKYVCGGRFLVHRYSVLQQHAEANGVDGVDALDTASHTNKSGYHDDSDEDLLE
assay-method-text: cell-based or functional assay
Ends that are not written are not given here.
measured-quantity: Mean Fluorescence Intensity (MFI), uptake 37C-4C, at 1000 nM

[
  {
    "binder": "KPPPAGSSPGLYENKPRRPYIL (not fully specified (residue 1); also: Cy3 label attached by BCN click to the azide) [Compound 17-AH-1492, Cy3-labeled extended neurotensin (eNT, …)]",
    "measured-result": 1260
  },
  {
    "binder": "XLYENKPRRPYIL (not fully specified; position 1 printed dK (X = 2-azido-acetyl lysine); side chain joined via triazolo-BCN carbamate / 6-aminohexanol linker to the 5' end of oligonucleotide … (SEQ ID NO 2, uniform MOE, phosphodiester, 3'-Cy3))",
    "measured-result": 293
  },
  {
    "binder": "LYENXPRRPYIL (not fully specified; position 1 is SO5P (5-oxoproline); internal lysine (LYEN-K) side chain azido-acetyl joined via triazolo-BCN carbamate / 6-aminohexanol linker to 5' end of … (SEQ ID NO 2, uniform MOE, phosphodiester, 3'-Cy3))",
    "measured-result": 97
  }
]
